assay: AUC in Beagle dog at 3 mg/kg, po; format: ADME, organism-based, Canis lupus familiaris; parameters: dose 3 mg/kg, route oral; details: plasma
MEASUREMENT TYPE: AUC (µM·h)
One number for each entry, in µM·h.

Request: What AUC value was documented for this molecule, COCCCc1cc(CCCN2CCOCC2)c(Cl)c(CN(C(=O)[C@H]2CNCC[C@@]23OCc2cc(F)c(F)cc23)C2CC2)c1.Cl.Cl.Cl ?
Result: 0.01

* * *

test: in vitro; settings: human, liver microsomes
MEASUREMENT TYPE: remaining at 1 h, 10 µM
Respond with the figure and its unit, in that order.

Request: For the compound shown here, O=C([C@H]1CNCC[C@@]12OCc1cc(F)c(F)cc12)N(Cc1cccc(C(F)(F)F)c1Cl)C1CC1 , give the reported remaining at 1 h, 10 µM.
Result: 50%
